system: 855422-203-R-J1-PDC complex spheroid viability; test: Anticancer human tumor 855422-203-R-J1-PDC patient-derived bladder carcinoma cell line growth inhibition [POLQ]; conditions: second compound 10 µM; first compound 1 µM; active means viability on the fitted dose curve at most 10% of control; inactive means the rest;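 further: spheroids exposed to compounds for seven days before readout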
The reply should be one of these categories: active, inactive

- molecule: "COc1cccc(OCCCN)c1-c1cc(Nc2cnc(C#N)cn2)n[nH]1 + Cc1cccc(N(C)C(=O)C2C(O)CCN2c2nc(C)cc(C(F)(F)F)c2C#N)c1"
  test-system: "855422-203-R-J1-PDC complex spheroid viability"
  class-label: "active"
- molecule: "COc1cc(C2c3cc4c(cc3C(OC3OC5COC(C)OC5C(O)C3O)C3COC(=O)C23)OCO4)cc(OC)c1O (stereo unspecified) + Nc1ccc(C#CCN(C(=O)Cc2ncc(C(F)(F)F)cc2C(F)(F)F)c2ccc(F)cc2)nn1"
  test-system: "855422-203-R-J1-PDC complex spheroid viability"
  class-label: "inactive"
- molecule: "CCc1c2c(nc3ccc(O)cc13)-c1cc3c(c(=O)n1C2)COC(=O)[C@]3(O)CC + Nc1ccc(C#CCN(C(=O)Cc2ncc(C(F)(F)F)cc2C(F)(F)F)c2ccc(F)cc2)nn1"
  test-system: "855422-203-R-J1-PDC complex spheroid viability"
  class-label: "active"
- molecule: "CCc1cc2c(N3CCc4c(cc(Cn5ccnc5)cc4-c4cn(C)nc4C(F)(F)F)C3=O)ccnc2c(OC)n1 + Cc1cccc(N(C)C(=O)C2C(O)CCN2c2nc(C)cc(C(F)(F)F)c2C#N)c1"
  test-system: "855422-203-R-J1-PDC complex spheroid viability"
  class-label: "inactive"
- molecule: "CC1COCCN1c1cc(-c2ccnn2C)c2ccnc(-c3ccn[nH]3)c2n1 (stereo unspecified) + Nc1ccc(C#CCN(C(=O)Cc2ncc(C(F)(F)F)cc2C(F)(F)F)c2ccc(F)cc2)nn1"
  test-system: "855422-203-R-J1-PDC complex spheroid viability"
  class-label: "inactive"

Alright, here's another molecule for you.
*Q* What is the recorded call for this molecule in the test? O=c1[nH]cc(F)c(=O)[nH]1 + Nc1ccc(C#CCN(C(=O)Cc2ncc(C(F)(F)F)cc2C(F)(F)F)c2ccc(F)cc2)nn1
*A* inactive
